test system: SN12C renal; experiment: NCI tumour cell line growth inhibition, 48 h; in the data active = GI50 below about 0.43 µM; inactive = the rest
Valid outcomes are listed here; reply with one: T for active, F for inactive

| Compound | Target entity | Class name |
| --- | --- | --- |
| CS(=O)(=O)c1ccc(Cl)c([N+](=O)[O-])c1 | SN12C renal | F |
| CC1(C)N=C(N)N=C(N)N1c1ccc(CCc2ccccc2)c(Cl)c1 | SN12C renal | T |
| CNC(=O)Nc1ccc(-c2nc(N3CCOCC3)nc3c2cnn3C2CCOCC2)cc1 | SN12C renal | T |
| C[C@]12CC[C@@H]3c4ccc(O)c([N+](=O)[O-])c4CC[C@H]3[C@@H]1CC[C@@H]2NS(=O)(=O)c1ccc(C(F)(F)F)cc1 | SN12C renal | F |
| C#C[C@]1(O)CC[C@H]2[C@@H]3CC=C4c5nc(Nc6ccccn6)sc5CC[C@]4(C)[C@H]3CC[C@@]21C | SN12C renal | F |

Query: Per the records of this test, what outcome belongs to Fc1cccc(COc2ccc(Nc3ncnc4sc(-c5ccco5)cc34)cc2Cl)c1 ?
Result: F

Query: Let us now turn to COC(=O)C1=C(OC(=O)c2ccc(Cl)cc2)C(C(=O)OC)[C@@]2(O)[C@@H](C(=O)OC)C(c3ccccc3C(F)(F)F)C[C@@H]1[C@@H]2C(=O)OC (stereo partly drawn)
Result: F

Query: Let us now turn to Clc1ccc([O][In]([O]c2ccc(Cl)cn2)[O]c2ccc(Cl)cn2)nc1
Result: F

----------
system: SR leukemia; assay: NCI tumour cell line growth inhibition, 48 h
Quantity name: TGI

Example results:
| Compound | Measured result |
| --- | --- |
| C=C(C)C1CC2C(C)=C(OC(C)=O)C1n1c(=O)c3cc4ccccc4cc3c(=O)n12 (stereo not given) | > 93 µM |
| CCOc1ccc(NCC2CC/C(=C\C=C\c3ccccc3)C2=O)cc1 (stereo not given) | > 33.3 µM |
| COc1cc2c3c(cc(Cl)nc3c1OC)C(=O)C(=O)N2 | > 29.6 µM |

Query: Looking for the measured TGI of NC(N)=NS(=O)(=O)c1ccc(NC(=O)c2cccc3c(NNc4ccc(S(N)(=O)=O)cc4)c4ccccc4nc23)cc1 , can you help?
Result: 82.6 µM

Query: Let us now turn to CC1(C)OC[C@@H](C[C@H](O)COCc2ccccc2)O1
Result: > 100 µM

Query: Let us now turn to O=c1[nH]c(=O)n(C2CC(O)C(CO)O2)cc1OC/C=C/Cc1ccccc1 (stereo not given)
Result: > 100 µM

----------
system: U251 CNS; experiment: NCI tumour cell line growth inhibition, 48 h
Quantity name: TGI (µM)
Use µM as the unit, but write only the number.

Example results:
| Compound | TGI [µM] |
| --- | --- |
| O=CN1CCN(C(=O)c2ccco2)C1=S | 32.5 |
| C=C1C(=O)O[C@@H]2C[C@@]3(C)CC(=O)C=C(C)[C@@H]3C[C@H]12 | 39.1 |
| COc1ccc(OC)c(NC(=O)C(=O)C(C(=O)c2ccccc2F)C2OC(=O)c3ccccc32)c1 (stereo not given) | 49.5 |

Query: Looking for the measured TGI of Cc1cc(C)c2c(c1)CN1CN2Cc2cc(C)cc(C)c21 , can you help?
Result: 32.3

The values you see were collected from PubChem BioAssay (NCI).
